# assay details: qHTS Validation assay for Inhibitors of Plasmodium falciparum Dd2 growth in vitro; further: nearly all actives have a fitted effect of over 70% in size
# particulars: P. falciparum Dd2 in RBCs, SYBR Green growth, 72 h; series mostly up to 28.7 µM
In all, about 4,100 compounds went through this assay and about 1,600 (39%) were called active. Inconclusive results (about 25%) are left out. The call rests on the fitted dose curve; in most records, active means well fitted inhibition curve with a large enough effect; inconclusive means small, poorly fitted or top-dose-only effect; inactive means no such curve, though single readings can be large or run the other way. Some of the results follow.
Answer with one of the outcomes True for active, False for inactive

Please review the following examples before continuing.
CC(=O)Nc1cc(-c2ccccc2)ccc1O True
CCCCc1c(C)c(C#N)c2nc3ccccc3n2c1Nc1c(C)n(C)n(-c2ccccc2)c1=O True
Cc1ccc(N(CC(=O)Nc2cccc(Cl)c2)S(=O)(=O)c2cccs2)cc1 False

Req: Recorded test outcome, item "CCOCc1cnc(C)nc1NCC(=O)c1c(C)[nH]c2cc(C)ccc12"
Resp: True

Req: Same question for "Nc1nc(-c2ccccn2)nc(N)c1Cc1ccccc1F" please.
Resp: True

Req: Same question for "CC(C)CNc1nnnc2c1sc1nc(N3CCOCC3)c3c(c12)CCCC3" please.
Resp: True

Req: Same question for "COCc1nc(-c2ccc(OC3CN(S(=O)(=O)c4ccccc4C)C3)cc2)no1" please.
Resp: False

Req: Same question for "CCOC(=O)c1c(NC(=O)CSc2cn(CCNC(=O)c3cccc(C(F)(F)F)c3)c3ccccc23)sc2c1CCC2" please.
Resp: False

Req: Same question for "CC(=O)Nc1ccc(/C(C)=N\NC(=O)c2ccc(-c3ccccc3)cc2)cc1" please.
Resp: False

Req: Same question for "Nc1nc(-c2ccccn2)nc(N)c1Cc1ccc(Cl)cc1Cl" please.
Resp: True

---

# assay details: qHTS Validation assay for Inhibitors of Plasmodium falciparum Dd2 growth in vitro; further: nearly all actives have a fitted effect of over 70% in size
# particulars: P. falciparum Dd2 in RBCs, SYBR Green growth, 72 h; series mostly up to 28.7 µM
Among all 4,100 compounds or so, about 1,600 (39%) were called active. Not shown: some 25% with an inconclusive outcome. Calls follow the shape of the dose curve; as a rule, active = well fitted inhibition curve with a large enough effect; inconclusive = small, poorly fitted or top-dose-only effect; inactive = no such curve, though single readings can be large or run the other way. This is one part of the list.
Answer with one of the outcomes active, inactive

Req: Recorded test outcome, item "O=C(/C=C/c1ccccc1)Nc1cccc(C(=O)O)c1"
Resp: inactive

Req: Same question for "Cc1nc(CCNC(=O)C2CC2)no1" please.
Resp: inactive

Req: Same question for CC(C)C(=O)NCC1CN(Cc2ccccc2)C(=O)c2c(ccnc2-c2ccc(OCC(=O)O)cc2)O1 (configuration not stated) please.
Resp: active

Req: Same question for CNC(=O)N1CCC(C2CCN(C(=O)CCCC(=O)O)C2)CC1 (configuration not stated) please.
Resp: inactive

Req: Same question for CC1CCCN(Cc2c(O)ccc3c(=O)c(Oc4ccccc4Cl)c(C(F)(F)F)oc23)C1 (configuration not stated) please.
Resp: active

---

# assay details: qHTS Validation assay for Inhibitors of Plasmodium falciparum Dd2 growth in vitro; further: nearly all actives have a fitted effect of over 70% in size
# particulars: P. falciparum Dd2 in RBCs, SYBR Green growth, 72 h; series mostly up to 28.7 µM
Out of some 4,100 compounds screened, about 1,600 (39%) were called active. Another 25% or so got no clear call; they are omitted. The call rests on the fitted dose curve; in most records, active means well fitted inhibition curve with a large enough effect; inconclusive means small, poorly fitted or top-dose-only effect; inactive means no such curve, though single readings can be large or run the other way. The list shows a part of the results.
Answer with one of the outcomes true (1) for active, false (0) for inactive

molecule	classification
COCC(=O)Nc1ccc2c(c1)OCC(=O)N2Cc1ccc(C)cc1	false (0)
COc1ccc(C(=O)Nc2cccc(-c3nnc4n3CCCC4)c2)cc1F	false (0)
CC(=O)Nc1ccc(NC(=O)c2c(C)oc3ccn(Cc4ccc(F)cc4)c(=O)c23)cc1	true (1)
CC(C)c1nc2c(c(-c3ccc(O)cc3)n1)CN(Cc1cccc(F)c1)CC2	true (1)
CCN1CCN(C(=O)c2ccc(-c3nnc4ccc(NC(=O)C5CC5)cn34)cc2)CC1	true (1)
COCC(=O)N1CCc2nc(-c3ccccc3)nc(-c3ccc(Cl)cc3)c2C1	false (0)
Cc1cccc(Cn2nnc(C(=O)Nc3cc(C)ccc3C)c2N)c1	false (0)
Cc1ccc(CCNC(=O)C2CCN(C(=O)c3cc4c(=O)[nH]c(C)cn4n3)CC2)cc1	false (0)
COCCn1c(=O)n([C@H]2CCCN(C(=O)CC3CCCCC3)C2)c2ncccc21	false (0)
CC(C)c1nc2c(c(-c3ccc(O)cc3)n1)CCN(Cc1ccc(C(F)(F)F)cc1)CC2	true (1)

Req: Recorded test outcome, item "O=C1NCc2ccccc2CC12CCN(Cc1ccccc1F)CC2"
Resp: false (0)

Req: Same question for "COc1cccc(NC(=O)CN(C)C(=O)c2ccc(-c3cccc(C(F)(F)F)c3)o2)c1" please.
Resp: true (1)

Req: Same question for Cc1ccc(C(=O)N2CCCC(n3cc(-c4nc(-c5ccccc5)no4)nn3)C2)cc1 (stereo unspecified) please.
Resp: false (0)

Req: Same question for COc1ccc(C2Cn3cnc(C(=O)N4CCC(C(=O)Nc5ccc(F)c(C)c5)CC4)c3CO2)cc1 (stereo unspecified) please.
Resp: false (0)

Req: Same question for "CN(C)c1cccc(C(=O)N2CCC(c3n[nH]c(=O)n3-c3ccccc3)CC2)c1" please.
Resp: false (0)

Req: Same question for "COc1cccc(NC(=O)c2ccc(-c3nnc4ccc(NC(=O)C5CCC5)cn34)cc2)c1" please.
Resp: true (1)

---

# assay details: qHTS Validation assay for Inhibitors of Plasmodium falciparum Dd2 growth in vitro; further: nearly all actives have a fitted effect of over 70% in size; further: potency means the concentration at half of the fitted maximal effect
# particulars: P. falciparum Dd2 in RBCs, SYBR Green growth, 72 h; series mostly up to 28.7 µM
Hit rate of the full screen: of about 4,100 compounds, about 1,600 (39%) were called active. Roughly 25% stayed inconclusive and do not appear here. The list shows a part of the results.
readout name: Potency

compound	readout name	value reported
CC(C)CN1C(=O)c2cccn2CC1CNC(=O)c1ccccc1 (stereo not given)	Potency	inactive
Cc1onc(-c2ccc(Cl)cc2)c1-c1ccnn1S(=O)(=O)c1cccc(C(F)(F)F)c1	Potency	4.73 µM (active)
COc1ccc2nc3cc(Cl)ccc3c(Nc3cc(C(C)C)c(O)cc3C)c2c1	Potency	0.266 µM (active)
Cc1nnc([C@H]2CCN(Cc3c[nH]c4ccccc34)C2)o1	Potency	inactive
CCc1noc(-c2cccn3c(CNC(=O)c4ccc(Cl)cc4)nnc23)n1	Potency	inactive
CC(=O)c1cccc(N(C(=O)Cn2nnc3ccccc32)C(C(=O)NCc2ccccc2)c2ccc(F)cc2)c1 (stereo not given)	Potency	inactive

Now turn to the next compound.
Req: Endpoint output: Potency of "COc1ccc(-c2cn(CCc3c[nH]c4ccccc34)nn2)cc1" . Value?
Resp: inactive

---

# assay details: qHTS Validation assay for Inhibitors of Plasmodium falciparum Dd2 growth in vitro; further: nearly all actives have a fitted effect of over 70% in size
# particulars: P. falciparum Dd2 in RBCs, SYBR Green growth, 72 h; series mostly up to 28.7 µM
About 1,600 (39%) of roughly 4,100 compounds were called active. Not shown: some 25% with an inconclusive outcome. Calls come from the whole dose curve; as a rule, active = well fitted inhibition curve with a large enough effect; inconclusive = small, poorly fitted or top-dose-only effect; inactive = no such curve, though single readings can be large or run the other way. The list shows a part of the results.
Answer with one of the outcomes Y = active, N = inactive

compound	classification
COc1cc2nc(Nc3ccc(C)c(Cl)c3)nc(N)c2cc1OC	Y

Req: Recorded test outcome, item "CCOC(=O)c1ccc(Nc2nc(N)c3cc(OC)c(OC)cc3n2)cc1"
Resp: Y

Req: Same question for "Cc1oc2c(CN3CCCCC3)c(O)ccc2c(=O)c1-c1ccc(Cl)cc1" please.
Resp: Y

Req: Same question for "COc1ccc(-c2cc3c(=O)n(CCNC(=O)c4c(F)cccc4Cl)ccn3n2)cc1" please.
Resp: N

Req: Same question for "COc1ccc2c(c1)c(CN1CCCCCCN(C)C(=O)[C@@H]3CCC[C@@H]31)cn2C" please.
Resp: Y

Req: Same question for "COc1cnc(-c2ccccn2)nc1NC(C)C" please.
Resp: Y

Req: Same question for "COc1ccc(C(=O)c2nccc3cc(OC)c(OC)cc23)cc1OC" please.
Resp: N

Req: Same question for "O=C(Nc1cc(C(F)(F)F)cc(C(F)(F)F)c1)Nc1cnn(-c2ccc([N+](=O)[O-])cc2)c1C(F)(F)F" please.
Resp: Y

Req: Same question for CC(=O)Nc1ccc(NC2=Nc3ccccc3N3C2=Nc2c(c(C)nn2-c2ccccc2)C3c2ccccc2)cc1 (configuration not stated) please.
Resp: Y

Req: Same question for Cc1noc(C)c1S(=O)(=O)NCC(=O)N1CCCCCCNC(=O)CC1c1ccccc1 (configuration not stated) please.
Resp: N

Req: Same question for "CCC(=O)N1CCCCCCN(C)C(=O)[C@@H]2CCC[C@@H]21" please.
Resp: N

Req: Same question for "Cc1ccc(C)c(-n2c(-c3ccc(Br)cc3)csc2=NC(=O)c2ccccc2F)c1" please.
Resp: Y

Req: Same question for "CC(=O)N1CCc2cc(Br)cc(S(=O)(=O)N3CCCCC3)c21" please.
Resp: Y

Req: Same question for "C1CCC(CNc2c3c(nc4nnnn24)CCCC3)CC1" please.
Resp: Y

Req: Same question for COc1ccc(NC(=O)c2ccc3c(c2)NC(C)(COCC2CC2)CO3)cn1 (configuration not stated) please.
Resp: N
